Source of measurements: ChEMBL document CHEMBL5154866

Target: High affinity nerve growth factor receptor (Homo sapiens, UniProt P04629, G595R)
Sequence (P04629 33-796 G595R limits assumed): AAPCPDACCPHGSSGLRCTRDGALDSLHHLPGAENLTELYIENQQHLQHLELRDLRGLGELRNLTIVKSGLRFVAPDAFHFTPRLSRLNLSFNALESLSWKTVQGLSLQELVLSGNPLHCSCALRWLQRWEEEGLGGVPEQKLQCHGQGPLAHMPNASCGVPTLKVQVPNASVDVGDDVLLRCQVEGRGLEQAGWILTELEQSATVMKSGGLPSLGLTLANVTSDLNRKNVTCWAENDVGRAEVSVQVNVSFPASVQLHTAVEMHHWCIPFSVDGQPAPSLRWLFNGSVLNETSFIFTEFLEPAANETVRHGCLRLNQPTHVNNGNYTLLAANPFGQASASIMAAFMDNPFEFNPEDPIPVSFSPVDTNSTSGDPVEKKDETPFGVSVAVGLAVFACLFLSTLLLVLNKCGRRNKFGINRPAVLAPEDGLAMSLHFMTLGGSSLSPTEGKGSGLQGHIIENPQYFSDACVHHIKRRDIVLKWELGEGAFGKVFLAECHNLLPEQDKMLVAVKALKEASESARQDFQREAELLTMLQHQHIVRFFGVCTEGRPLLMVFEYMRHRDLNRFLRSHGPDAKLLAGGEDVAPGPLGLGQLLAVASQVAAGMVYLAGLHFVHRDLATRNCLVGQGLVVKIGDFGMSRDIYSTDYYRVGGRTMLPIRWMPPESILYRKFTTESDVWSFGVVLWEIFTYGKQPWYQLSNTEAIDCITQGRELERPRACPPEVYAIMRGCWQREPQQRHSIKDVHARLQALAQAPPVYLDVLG
Assay: Inhibition of TRKA G595R mutant (unknown origin) by HTRF assay
quantityKind: IC50

Exam item: What IC50 value was documented for this molecule, Cc1c2cc(cc1C(=O)Nc1cc(CN3CCN(C)CC3)cc(C(F)(F)F)c1)OCCCCC(=O)NCCN(C)c1ccc3ncc(n3n1)C#C2 ?
Marked response: 80.6 nM

====

Molecular target: UniProt:Q02763
Sequence (Q02763 whole entry, the tested form may be a part): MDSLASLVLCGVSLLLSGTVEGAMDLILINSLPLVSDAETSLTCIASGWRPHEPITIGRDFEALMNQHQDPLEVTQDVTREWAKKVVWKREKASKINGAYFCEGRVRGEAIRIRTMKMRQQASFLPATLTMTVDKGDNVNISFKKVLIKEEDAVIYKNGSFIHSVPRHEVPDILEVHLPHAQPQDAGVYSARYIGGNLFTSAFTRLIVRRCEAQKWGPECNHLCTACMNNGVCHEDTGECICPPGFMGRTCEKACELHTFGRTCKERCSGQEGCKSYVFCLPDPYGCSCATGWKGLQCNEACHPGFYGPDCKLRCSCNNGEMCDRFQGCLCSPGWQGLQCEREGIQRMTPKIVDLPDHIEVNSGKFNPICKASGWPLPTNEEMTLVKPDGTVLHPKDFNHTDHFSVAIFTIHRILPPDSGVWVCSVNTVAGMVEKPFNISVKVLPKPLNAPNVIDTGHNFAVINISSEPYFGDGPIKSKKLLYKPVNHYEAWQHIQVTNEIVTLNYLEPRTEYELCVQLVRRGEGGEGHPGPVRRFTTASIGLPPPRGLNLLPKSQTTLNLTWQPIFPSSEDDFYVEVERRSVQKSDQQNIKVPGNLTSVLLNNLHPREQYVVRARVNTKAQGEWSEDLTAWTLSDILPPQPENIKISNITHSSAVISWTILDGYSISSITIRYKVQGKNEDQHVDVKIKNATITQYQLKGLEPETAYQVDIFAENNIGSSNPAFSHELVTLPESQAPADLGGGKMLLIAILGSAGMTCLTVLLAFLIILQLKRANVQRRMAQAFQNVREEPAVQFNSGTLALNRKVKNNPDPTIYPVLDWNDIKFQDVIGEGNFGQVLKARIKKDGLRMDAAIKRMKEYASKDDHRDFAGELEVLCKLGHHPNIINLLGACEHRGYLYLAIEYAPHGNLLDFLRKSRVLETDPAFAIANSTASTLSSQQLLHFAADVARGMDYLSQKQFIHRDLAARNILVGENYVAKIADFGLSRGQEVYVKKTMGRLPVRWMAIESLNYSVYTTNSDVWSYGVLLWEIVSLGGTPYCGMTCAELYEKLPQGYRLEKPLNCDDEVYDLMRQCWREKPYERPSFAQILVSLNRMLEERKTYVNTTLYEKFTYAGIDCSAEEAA
Assay: Inhibition human wild type partial length Tie2 (N804 to T1112 residues) expressed in bacterial expression system by Kinomescan method
quantityKind: IC50 (nM)
Report the value in nM with no unit label.

Exam item: Lab note: need IC50 for Cc1cn(-c2cc(NC(=O)c3cc4cc(c3C)C#Cc3cnc5ccc(nn35)N(C)CCNC(=O)CCCCO4)cc(C(F)(F)F)c2)cn1 on UniProt:Q02763, anyone have it?
Marked response: 217

====

Molecular target: UniProtKB P04629
quantityKind: IC50 (nM)
The reply should be a number in nM, with the unit left off.

Exam item: // query IC50 value for entry Cc1c2cc(cc1C(=O)Nc1cc(CN3CCN(C)CC3)cc(C(F)(F)F)c1)OCCCCC(=O)NCCN(C)c1ccc3ncc(n3n1)C#C2
Marked response: 7.8

====

Assay: AUC (0 to t) in Sprague-Dawley rat at 10 mg/kg, po measured upto 24 hrs by LC-MS/MS analysis
Type: ADME, organism-based
Parameters: time < 24 hrs, dose 10 mg/kg, route po
Settings: in vivo
quantityKind: AUC(0-t) at 24 h (ng·h/mL)
Write down the numeric answer in ng·h/mL and omit the unit.

Exam item: Can you look up the measured AUC(0-t) at 24 h of Cc1cn(-c2cc(NC(=O)c3cc4cc(c3C)C#Cc3cnc5ccc(nn35)N(C)CCNC(=O)CCCCO4)cc(C(F)(F)F)c2)cn1 for me?
Marked response: 51.6

====

Target: Discoidin domain-containing receptor 2 (Homo sapiens)
Sequence (Q16832 whole entry): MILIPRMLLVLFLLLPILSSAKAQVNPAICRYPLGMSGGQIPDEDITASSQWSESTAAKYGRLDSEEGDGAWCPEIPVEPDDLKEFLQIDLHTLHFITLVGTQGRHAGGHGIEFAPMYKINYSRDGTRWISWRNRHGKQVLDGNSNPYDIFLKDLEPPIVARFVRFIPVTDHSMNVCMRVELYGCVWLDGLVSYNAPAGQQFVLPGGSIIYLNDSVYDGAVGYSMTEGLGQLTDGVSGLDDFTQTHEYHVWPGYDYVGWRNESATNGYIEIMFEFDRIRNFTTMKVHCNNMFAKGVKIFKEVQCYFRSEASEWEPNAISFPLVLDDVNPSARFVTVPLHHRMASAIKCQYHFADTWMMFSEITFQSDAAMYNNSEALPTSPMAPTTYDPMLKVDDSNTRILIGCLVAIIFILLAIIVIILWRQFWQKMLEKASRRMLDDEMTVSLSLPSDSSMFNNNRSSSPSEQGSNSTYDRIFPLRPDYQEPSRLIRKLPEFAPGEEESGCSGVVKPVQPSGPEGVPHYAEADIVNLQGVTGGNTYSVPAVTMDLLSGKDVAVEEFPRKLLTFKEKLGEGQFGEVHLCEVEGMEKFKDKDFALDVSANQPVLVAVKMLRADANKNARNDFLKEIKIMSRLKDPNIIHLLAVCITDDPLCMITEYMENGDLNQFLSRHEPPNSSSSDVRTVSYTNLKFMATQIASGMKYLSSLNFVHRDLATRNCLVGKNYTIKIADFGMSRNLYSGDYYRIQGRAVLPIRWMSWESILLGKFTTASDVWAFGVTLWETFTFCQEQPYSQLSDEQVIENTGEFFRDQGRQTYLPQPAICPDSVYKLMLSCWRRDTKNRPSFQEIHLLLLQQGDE
quantityKind: pIC50
// pIC50 here means minus log10 of the molar concentration (mol/L)

Exam item: Bench note: what pIC50 did Cc1cn(-c2cc(NC(=O)c3cc4cc(c3C)C#Cc3cnc5ccc(nn35)N(C)CCNC(=O)CCCCO4)cc(C(F)(F)F)c2)cn1 show?
Marked response: 6.50
